# assayName: Systemic delivery study: plasma pharmacokinetics after iontophoretic patch or subcutaneous injection
# Assay type: in vivo, domestic swine
# conditionDetails: pig, in vivo, sc; subcutaneous 6 mg; male swine (animal 8P167)
observedProperty: Cmax (ng/mL)
Your answer should be a plain number; it is taken to be in ng/mL.

Incoming: Query: Cmax; subject: C[C@@H]1C[C@H]2[C@@H]3CCC4=CC(=O)C=C[C@]4(C)[C@@]3(F)[C@@H](O)C[C@]2(C)[C@@]1(O)C(=O)COP(=O)(O)O [DexP, Dexamethasone sodium phosphate]
Outgoing: 28.4

====

# assayName: Systemic delivery study: plasma pharmacokinetics after iontophoretic patch or subcutaneous injection
# Format: in vivo, domestic swine
# conditionDetails: pig, in vivo, sc; subcutaneous 6 mg; female swine (animal 8P168); read-out: t½ (converted)
observedProperty: half-life (h)
Express the result in h but write the number alone.

Incoming: Endpoint output: half-life of C[C@@H]1C[C@H]2[C@@H]3CCC4=CC(=O)C=C[C@]4(C)[C@@]3(F)[C@@H](O)C[C@]2(C)[C@@]1(O)C(=O)COP(=O)(O)O [DexP, Dexamethasone sodium phosphate] . Value?
Outgoing: 1.5
